experimental details: Quantitative highthroughput screen to assess conditional lethalithy of NOMO1 cells grown in Human Plasma-Like Medium with dialyzed fetal bovine serum (HPLM+ds) (AID 1963878); note: nearly all actives have a fitted effect of over 35% in size;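 for viability: 100% = DMSO wells and 0% = empty wells on each plate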
details: NOMO1 AML cells in HPLM+ds, CellTiter-Glo viability, 48 h; series mostly up to 45.8 µM
Inconclusive results are not listed. Activity calls are given as the source filed them. Calls come from the whole dose curve; as a rule, active = well fitted cell-killing curve with a large enough effect; inconclusive = small, poorly fitted or top-dose-only effect, or effect the other way; inactive = no such curve, though single readings can be large or run the other way.
Classes to choose from: Yes (active), No (inactive)

Here's what some known entries look like.
mol smiles	classification
CCOc1cc(C=C2C(=O)N(c3ccccc3)N=C2C)cc(Cl)c1OCC(=O)OC	No
Oc1c(Cl)cc(Cl)c2cccnc12	No
COc1cc2nc(N3CCN(C(=O)c4ccco4)CC3)nc(N)c2cc1OC	Yes
COc1cccc2c1C(=O)c1c(O)c3c(c(O)c1C2=O)C[C@@](O)(C(=O)CO)C[C@@H]3O[C@H]1C[C@H](N)[C@@H](O)[C@H](C)O1	Yes
CC(=O)N(C)C1(c2ccccc2)CCN(CCC[C@]2(c3ccc(Cl)c(Cl)c3)CCCN(C(=O)c3ccccc3)C2)CC1	Yes
C=C(C)[C@@H]1CC[C@]2(C)CC[C@]3(C)[C@H](CC[C@@H]4[C@@]5(C)CC[C@H](O)C(C)(C)[C@H]5CC[C@]43C)[C@@H]12	No
NS(=O)(=O)c1cccc2c1C(=O)c1cccc(O)c1C2=O	Yes
O=c1n(CCCN2CCN(c3cccc(Cl)c3)CC2)nc2ccccn12	No

--- query ---
Request: Answer briefly: the call reported for CC(C)c1ccc2oc3nc(N)c(C(=O)O)cc3c(=O)c2c1 in this assay.
Result: No

* * *

experimental details: Cellular viability qHTS for adrenocortical cancer (ACC) cell line SW-13 (AID 1963989);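 note: cells grown in serum-free medium with ITS supplement; % is set by controls: 0 for no effect and ±100 for the full control effect; nearly all actives have a fitted effect of over 65% in size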
details: SW-13 ACC cells viability, CellTiter-Glo, 48 h; active compounds read low
Records with an inconclusive call do not appear.
Listing: activity (max response) of selected compounds
The response must be a number in % with no trailing unit.

compound	activity (max response) (%)
C[C@@H](N)C(=O)O	1.67
COc1ccc2nc(SCc3ncc(C)c(OC)c3C)[nH]c2c1	3.67
OCc1cccnc1	0.385
CSC[C@H]1CN(Cc2c[nH]c3c(N)ncnc23)C[C@@H]1O	-14.7
CCC1=C(C)CN(C(=O)NCCc2ccc(S(=O)(=O)NC(=O)NC3CCC(C)CC3)cc2)C1=O (stereo unspecified)	-7.59
C[C@]12C=CC(=O)C=C1[C@@H](F)C[C@@H]1[C@@H]2[C@@H](O)C[C@@]2(C)[C@H]1CC[C@]2(O)C(=O)CO	7.4

Request: Query (compound): CN1CCN(CCCNc2ncc(Cl)c(-c3cc4c(C(=O)NC5CC5)cccc4s3)n2)CC1 ; field requested: activity (max response)
Result: 0.565

* * *

experimental details: Viability qHTS for spleen associated tyrosine kinase inhibitor (SYKi) naive MV4-11 cells (AID 1963823); note: nearly all actives have a fitted effect of over 40% in size
details: MV4-11 AML viability, CellTiter-Glo luminescence, 72 h; series mostly up to 45 µM
Results filed as inconclusive are left out. The source made the active and inactive calls. The call rests on the fitted dose curve; in most records, active means well fitted cell-killing curve with a large enough effect; inconclusive means small, poorly fitted or top-dose-only effect, or effect the other way; inactive means no such curve, though single readings can be large or run the other way.
Lab note: assign the record to one of active, inactive

Worked cases, answers included:
compound	classification
O=C(/C=C/c1ccc(O)cc1)OCC1=C[C@@H](O)[C@@H]2C=CO[C@@H](O[C@@H]3O[C@H](CO)[C@@H](O)[C@H](O)[C@H]3O)[C@H]12	inactive
CCCCS(=O)(=O)NC(Cc1ccc(OCCCCC2CCNCC2)cc1)C(=O)O (centres undefined)	inactive
CCNC(=O)C1CC(F)(c2ccc(CN3CCCC3)c(F)c2)C1 (centres undefined)	inactive

Request: State the result this test recorded for NS(=O)(=O)c1ccc(N2CCN(CC[C@@H]3OCCc4ccccc43)CC2)cc1 .
Result: active

Request: Then what about the compound CC1=C(CCC(C)O[C@@H]2O[C@H](CO)[C@@H](O)[C@H](O)[C@H]2O)C(C)(C)CC(O)C1 (some centres undefined) ?
Result: inactive

Request: Try this compound next: CCCC1(CCC)CCC2(CCN(CCCN(CC)CC)C2)CC1
Result: active
